Origin of the recorded values: paper PMC5540273

# Test system: CSF1R-autoinhibited;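 note: KINOMEscan kinase panel screen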
# stated.conditions: concentration: 1 μM, replicates: in singlicate; n = 1
# binarize %Inh: threshold 7% inclusive, high side fulfilled, low side not fulfilled

Worked set:
compound	label.value
Cc1ccc(-c2ccc3occ(-c4ccc(S(C)=O)cc4)c3c2)nn1 (stereo not drawn)	fulfilled
COc1cccc(-c2nc(-c3ccccc3)[nH]c2-c2ccncc2)c1 [SB-610250]	not fulfilled

Exercise: Assess whether reported %Inh for COC(=O)Nc1nc2ccc(Oc3ccc(NC(=O)Nc4cc(C(F)(F)F)ccc4F)cc3)cc2[nH]1.Cl [GW654607] sits at 7% or higher.
Key: fulfilled

Exercise: Entry CS(=O)(=O)c1cccc(CNc2nc(Nc3ccc4c(c3)CCC(=O)N4)ncc2C(F)(F)F)c1 : is its %Inh no less than 7%?
Key: not fulfilled

Exercise: Given the entry Cl.Cl.NCC(NC(=O)c1cc(-c2cccnc2)c(-c2ccnc3[nH]ccc23)s1)c1ccccc1 (stereo not drawn) [GSK1323434] , answer whether its %Inh meets or surpasses 7%.
Key: fulfilled
